tested system: human CD33 F44S (human, UniProt P20138 18-364)
Sequence (P20138 18-364 F44S limits assumed): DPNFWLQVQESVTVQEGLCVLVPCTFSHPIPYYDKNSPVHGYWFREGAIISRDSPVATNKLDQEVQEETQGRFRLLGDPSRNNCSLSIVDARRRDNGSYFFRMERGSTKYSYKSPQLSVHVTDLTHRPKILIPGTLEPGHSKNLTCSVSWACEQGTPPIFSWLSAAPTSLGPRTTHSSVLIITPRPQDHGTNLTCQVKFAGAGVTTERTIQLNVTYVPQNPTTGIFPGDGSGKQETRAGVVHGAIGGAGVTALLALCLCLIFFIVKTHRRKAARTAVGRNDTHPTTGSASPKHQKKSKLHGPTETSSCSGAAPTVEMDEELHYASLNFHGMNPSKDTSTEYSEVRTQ
protocol text: flow cytometry, mutant on cells, IgG
Measured Mean % WT Binding accompanies every entry in the list below.
Quote the value and follow it with the unit of measurement.

Sample answers from the record:
# binder, recorded result
data = [
    ("Refmab #2 (antibody, human IgG1, V domains shown, Tested in IgG format; human IgG1 Fc silent (PG-LALA)) VH: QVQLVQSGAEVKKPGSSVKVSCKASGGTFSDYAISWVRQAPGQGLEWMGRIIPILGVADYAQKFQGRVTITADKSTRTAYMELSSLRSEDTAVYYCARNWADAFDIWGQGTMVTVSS VL: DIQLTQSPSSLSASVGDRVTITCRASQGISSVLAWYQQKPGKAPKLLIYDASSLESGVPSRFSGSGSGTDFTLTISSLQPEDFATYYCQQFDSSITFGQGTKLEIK", "0.8 % WT binding"),
    ("Refmab #3 (antibody, human IgG1, V domains shown, Tested in IgG format; human IgG1 Fc silent (PG-LALA)) VH: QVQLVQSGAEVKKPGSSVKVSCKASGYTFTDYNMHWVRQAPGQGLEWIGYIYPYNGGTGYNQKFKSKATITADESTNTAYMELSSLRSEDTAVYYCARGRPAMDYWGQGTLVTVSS VL: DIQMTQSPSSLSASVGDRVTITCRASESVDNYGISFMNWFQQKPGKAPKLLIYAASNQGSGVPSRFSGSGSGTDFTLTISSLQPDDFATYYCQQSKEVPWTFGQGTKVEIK", "11.4 % WT binding"),
    ("Refmab #1 (antibody, human IgG1, V domains shown, Tested in IgG format; human IgG1 (Absolute Antibody hP67.6, Cat. No. Ab00283-10.0); also called hP67.6) VH: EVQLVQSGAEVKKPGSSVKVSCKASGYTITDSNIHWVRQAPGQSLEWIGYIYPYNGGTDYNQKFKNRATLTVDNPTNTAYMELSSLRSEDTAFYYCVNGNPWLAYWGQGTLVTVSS VL: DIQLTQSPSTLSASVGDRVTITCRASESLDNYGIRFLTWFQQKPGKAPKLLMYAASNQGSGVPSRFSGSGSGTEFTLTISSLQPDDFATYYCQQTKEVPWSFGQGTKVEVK", "79.8 % WT binding"),
]

Kindly consider the entry below.
IN: // fetch Mean % WT Binding given entry Refmab #4 (antibody, human IgG1, V domains shown, Tested in IgG format; human IgG1 Fc silent (PG-LALA)) VH: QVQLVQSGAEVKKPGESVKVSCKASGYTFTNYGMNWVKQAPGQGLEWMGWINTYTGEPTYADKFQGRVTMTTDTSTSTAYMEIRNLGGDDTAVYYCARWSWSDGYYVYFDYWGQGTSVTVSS VL: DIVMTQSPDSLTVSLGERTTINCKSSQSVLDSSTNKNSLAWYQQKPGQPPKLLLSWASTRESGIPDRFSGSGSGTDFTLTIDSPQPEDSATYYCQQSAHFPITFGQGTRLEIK
OUT: 93.8 % WT binding
